Ref: patent US20260098080A1

Molecular target: T1, rat MASP-2cf CCP1-CCP2-SP (rat, UniProt Q9JJS8 298-685)
T1 construct: range 298-685; Mw 42309 Da; also called rat MASP-2 catalytic fragment
T1 sequence (Q9JJS8 other isoform, or with tags, fused parts or gaps limits assumed, form in doubt): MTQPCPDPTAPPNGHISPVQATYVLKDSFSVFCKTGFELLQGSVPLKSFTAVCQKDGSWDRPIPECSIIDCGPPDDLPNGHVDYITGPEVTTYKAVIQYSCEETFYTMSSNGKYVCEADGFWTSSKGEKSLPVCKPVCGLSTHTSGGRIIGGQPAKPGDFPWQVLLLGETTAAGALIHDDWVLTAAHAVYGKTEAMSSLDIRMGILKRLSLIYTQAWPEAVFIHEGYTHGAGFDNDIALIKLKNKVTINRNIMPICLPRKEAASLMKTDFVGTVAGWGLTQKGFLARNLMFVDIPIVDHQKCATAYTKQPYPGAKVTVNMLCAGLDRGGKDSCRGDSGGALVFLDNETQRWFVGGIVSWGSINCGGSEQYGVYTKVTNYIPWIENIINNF
Experiment: SPR, target immobilised
Where no end group is shown, it is not given here.
measuredAttribute: Relative affinity (fold vs EVO2)

binder	valueObserved
EVO2 (designed binder, not fully specified; ends and bridges not checked, Modified Kunitz domain TFPI-D2 of human TFPI-1; recombinant from E. coli, freed from a His6-S100A4 fusion by TEV protease; also called TFMI-2b) KPDFCFLEEDPGPCRAVKRRYFYNNQTKQCERFKYGGCLGNMNNFETLEECKNICEDG	1
EVO214 (designed binder, not fully specified; ends and bridges not checked, Modified TFPI-D2 Kunitz domain; made as m1) KPDFCFLENDPGPCRALKLRYFYNNQTKQCERFGYGGCLGNMNNFVTLEECKNICEDG	31
EVO224 (designed binder, not fully specified; cysteine pairing not given here, Modified TFPI-D2 Kunitz domain; made as m1) KPDFCFLENDPGVCRALAVRYFYNNQTKQCERFYYGGCLGNMNNFVTLEECKNICEDG	16.6
EVO22a (designed binder, Modified TFPI-D2 Kunitz domain; made as m1) KPDFCFLENDPGPCRAAKRRYFYNNQTKQCERFYYGGCLGNMNNFVTLEECKNICEDG	18.9
EVO25 (designed binder, not fully specified; cysteine pairing not given here, Modified TFPI-D2 Kunitz domain; made as m1) KPDFCFLENDPGPCRALKRRYFYNNQTKQCERFYYGGCFGNMNNFETLEECKNICEDG	4.6
EVO2b (designed binder, not fully specified; cysteine pairing not given here, Modified TFPI-D2 Kunitz domain; made as m1) KPDFCFLEEDPGPCRAVKRRYFYNNQTKQCERFGYGGCLGNMNNFETLEECKNICEDG	1.9
EVO221 (designed binder, not fully specified; cysteine pairing not given here, Modified TFPI-D2 Kunitz domain; made as m1) KPDFCFLENDPGVCRAAAVRYFYNNQTKQCERFYYGGCLGNMNNFVTLEECKNICEDG	21.4
EVO222 (designed binder, not fully specified; cysteine pairing not given here, Modified TFPI-D2 Kunitz domain; made as m1) KPDFCFLENDPGLCRAAAVRYFYNNQTKQCERFYYGGCLGNMNNFVTLEECKNICEDG	6.4
